Reported Kd values follow for various binders
Molecular target: RSV prefusion F (preF, DS-Cav1) (Respiratory syncytial virus)
Experiment: BLI, IgG on sensor, 100 nM antigen
result-type: Kd

ADI-41240 (antibody, V domains shown) VH: QVQLQQWGAGLLKPSETLSLICDVYGGSFSDYYWSWIRQSPGKGLEWIGEINHSGSTSFHPSLKSRISISIDTSNNQFSLNLSSMTAADTAVYYCARGTLRGYFDYWGQGTLVTVSS VL: EIVLTQSPSTLSAFVGDRVTITCRASQSISRWLAWYQQKPGKAPNLLISEASSLESGVPSRFSGSGSGTEFTLTISSLQPDDLGTYYCQQYNGYLWTFGQGTKVEIK :: 2.15 nM
ADI-41310 (antibody, V domains shown) VH: QVQLVQSGVEVKKPGESLKISCRGSGYSFYNYWIAWVRQKPGKGLEYMGTIYLDDSDTIYSPSFQGEVTISADKSINTAYLQWNSLKASDTANYYCARQMDFYFDVWGRGTLVTVSS VL: SYELTQPPSVSVSPGQTARITCSGDPLPRESAYWYQQKPGQAPVVVIFNDIERPLGIPGRFSGSRSGATATLTINGAQAEDEADYYCQSADSRKTFVFGAGTKLTVL :: 3.32 nM
ADI-41308 (antibody, V domains shown) VH: EVQLVESGPGLVKPSQTLSLTCAISGDSVSSNSAAWNWIRQSPSRGLERMGRTYYRSKWYDDYAVSVKSRIIINPDTSKNQFSLQLNSVTPEDTAVYYCARGISTFGGVIYALEIWGQGTMVTVSS VL: SYVLTQPASVSGSPGQSITISCTGLTSDVGGYNFVSWYQQHPGKAPKLIIYDVSHRPSGVSNRFSGSESGNTASLTISGLQAEDEAHYYCSSYTRTSIVVFGGGTKLTVL :: 4 nM
